Here the recorded growth is given for each entry.
tested on: BT-549 breast; test: NCI-60 one-dose screen, 48 h (100 = growth as untreated, 0 = no growth, -100 = all killed); settings: 10 µM unless noted
About 83,000 compounds went through this panel and 20% of them were active in at least one assay; those are over-represented in the sample as a whole. Calls of active or inactive are those of the source. Rule for the calls: active = growth percent below 10; inactive = the rest.

Recorded growth, per entry:
compound	result
CC/C(=C/c1cc(OC)ccc1O)c1ccc2cc(OC)ccc2[o+]1	51.5% (inactive)
c1cn2c(ccc3nc(-c4cn[nH]c4)c4c(c32)CCCC4)n1	53.1% (inactive)

Exercise: Which growth is listed for `CCN(CC)CCn1c2ccc(O)cc2c2sc3cc(OC)ccc3c(=O)c21` ?
Solution: 68.1% (inactive)

Exercise: Which growth is listed for `COc1ccc(/C=C/C(=O)c2cccc(NC(=O)CSc3nc4ccccc4c(=O)n3-c3ccccc3)c2)cc1OC` ?
Solution: 115% (inactive)

Exercise: Which growth is listed for `CN1CCN(Cc2ccc(NC(=O)c3cncc(C#Cc4cnc5ccc(OCC6(C)COC6)nn45)c3)cc2C(F)(F)F)CC1` ?
Solution: -62% (active)

Exercise: Which growth is listed for c1ccc(C(c2nc3ncncc3[nH]2)N2CSc3nc4ncncc4n3C2)cc1 (configuration not stated) ?
Solution: 73.1% (inactive)

Exercise: Which growth is listed for `Cc1noc(C)c1CSc1nc2ccccc2n1-c1ccccc1` ?
Solution: 87.5% (inactive)

Exercise: Which growth is listed for `FC(F)(F)c1cc(Nc2cccc(Oc3ccc(NC4=NCCN4)nc3)c2)ccc1Cl` ?
Solution: 44.7% (inactive)

Exercise: Which growth is listed for `CCc1cccc(NC(=O)CNc2cc(S(=O)(=O)N(C)C)cc(C)c2C)c1` ?
Solution: 97.3% (inactive)

----------
Here the recorded growth is given for each entry.
test system: EKVX NSCLC; experiment: NCI-60 one-dose screen, 48 h (100 = growth as untreated, 0 = no growth, -100 = all killed); conditions: 10 µM unless noted
This is part of a sample that, as a whole, favours compounds with a hit. Of some 83,000 tested, about 20% had one in any assay.
State just the number; it will be interpreted in %.

Recorded growth, per entry:
molecule	growth [%]
CCNC(=O)Oc1ccc(/C(=C(/C)c2ccccc2)c2ccc(OCCN3CCCCCC3)cc2)cc1	52.4
Nc1ncc(-c2ccc3ncnc(N4CCc5cc(F)c(Cl)cc54)c3c2)cn1	-9.64
CCn1c(SCC(=O)Nc2cccc(C(=O)/C=C/c3ccc(C)cc3)c2)nc2ccccc2c1=O	98.8

Exercise: Provide value of growth for this record tested with EKVX NSCLC: `O=C(NNc1nc2cc(F)c(F)cc2n2cccc12)c1cnccn1`
Solution: 17

Exercise: Provide value of growth for this record tested with EKVX NSCLC: CC(=O)C1=C(C)NC(NN)=NC1c1cccc(Cl)c1 (stereo not given)
Solution: 96.4

Exercise: Provide value of growth for this record tested with EKVX NSCLC: `Cc1ccc(-n2cc(/C=N/NC(=O)c3ccncc3)c(-c3ccc(S(C)(=O)=O)cc3)n2)cc1`
Solution: 95.2

Exercise: Provide value of growth for this record tested with EKVX NSCLC: `FC(F)(F)c1cc(Nc2cccc(Oc3ccc(NC4=NCCN4)nc3)c2)ccc1Cl`
Solution: 12.6

Exercise: Provide value of growth for this record tested with EKVX NSCLC: `COc1ccc2[nH]cc(/C=N/Nc3nc4ccccc4s3)c2c1`
Solution: 50

Exercise: Provide value of growth for this record tested with EKVX NSCLC: `CNC(=O)c1c(NC(=O)c2ccccc2C(F)(F)F)sc2c1CCC(=O)C2`
Solution: 23.9

Exercise: Provide value of growth for this record tested with EKVX NSCLC: CCc1cccc2c3c(sc12)C(c1ccc(Cl)cc1)C(C#N)=C(/N=C/c1ccc(Cl)cc1)O3 (stereo not given)
Solution: 45.8
